system: OVCAR-5 ovarian; assay: NCI tumour cell line growth inhibition, 48 h
Property Name: TGI

COC(=O)[C@@H]1Cc2cc(O)c(O)cc2C2(CCN(C)CC2)O1; > 10 µM
CN(O)C(=S)c1ccccc1; > 100 µM

Inquiry: Would you mind telling me what TGI value was observed for "Cc1cc(C)n(CN(Cn2nc(C)cc2C)c2ccccc2)n1" ?
Reply text: 69.6 µM

Inquiry: If you can, please state the reported TGI value of "N#Cc1c(N)nc(N2CCSCC2)c(C#N)c1-c1ccc(O)cc1" .
Reply text: 50 µM

Inquiry: Query (molecule): "O=C(Nc1cccnc1)c1ccc2ccc3ccc(C(=O)Nc4cccnc4)nc3c2n1" ; field requested: TGI
Reply text: > 100 µM

Inquiry: Find the recorded TGI belonging to CC(C)CCC(=O)[C@@H](C)[C@H]1[C@@H](OC2OCC(O)C(O)C2NS(C)(=O)=O)C[C@H]2[C@@H]3CC=C4C[C@@H](O)CC[C@]4(C)[C@H]3CC[C@]12C (stereo not given in full) and report it.
Reply text: 16.8 µM

Inquiry: Item "CCOC(=O)c1c2cccccc2n2c(=O)cc(C)nc12" has what recorded TGI?
Reply text: > 100 µM

Inquiry: Query (molecule): "CC(=O)O[C@@H]1O[Si](C(C)(C)C)(C(C)(C)C)[C@H](C)[C@H]1C" ; field requested: TGI
Reply text: > 100 µM

Inquiry: Quick check: TGI of "CC(=O)Oc1c2oc3cc(O)c(O)cc3c2c(OC(C)=O)c2oc3cc(O)c(O)cc3c12" ?
Reply text: 56.3 µM

Inquiry: Entry "O=C(NNC(=S)NCc1ccccc1)C12CC3CC(CC(C3)C1)C2" has what TGI?
Reply text: > 100 µM

----------
system: K-562 leukemia; test: NCI tumour cell line growth inhibition, 48 h
Recorded measurements of GI50, one per entry

Examples from the recorded data:
NC(=Nc1nc(-c2ccccn2)cc2ccccc12)c1ccccn1; 0.0199 µM
O=C(NN1C(=O)CSC12CCCC2)C(O)c1ccccc1 (centres undefined); > 100 µM
COc1ccc(CNc2cnc3cc(N)cc(N)c3n2)cc1; 10.7 µM

Read the next record carefully.
Inquiry: I have this compound here, "N#Cc1c(N)nc(N2CCSCC2)c(C#N)c1-c1ccc(O)cc1" , and I need its recorded GI50.
Reply text: 19.8 µM

----------
In this section we review reported TGI values for a set of compounds.
tested on: COLO 205 colon; experiment: NCI tumour cell line growth inhibition, 48 h

Inquiry: Given the compound "O=C(Nc1cccnc1)c1ccc2ccc3ccc(C(=O)Nc4cccnc4)nc3c2n1" , what is its reported TGI?
Reply text: > 100 µM

Inquiry: Quick one: TGI of "N#Cc1c(N)nc(N2CCSCC2)c(C#N)c1-c1ccc(O)cc1" ?
Reply text: 47.1 µM

Inquiry: TGI for "Cc1ccc(-c2cc(-c3c(C)nn(C)c(=O)c3N)[nH]n2)cc1" ?
Reply text: > 100 µM

----------
tested on: CCRF-CEM leukemia; test: NCI tumour cell line growth inhibition, 48 h
Where a SMILES comes first, the peptide text is derived from it. [ ]: non-standard residue; d: D form. 2Nal = N[CH](Cc1ccc2ccccc2c1)C(=O)O
Property Name: GI50

Please review the entries below; each comes with its answer.
COc1cc(/C=C\c2cc(/C=C\c3ccc(O)c(OC)c3)n(C(=O)CNc3ccc(Cl)cc3)n2)ccc1O; 1.49 µM
O=C(Cn1c(C(=O)c2ccccc2)nc2ccccc21)c1ccc(F)cc1; 5.75 µM

For the next question, use this molecule.
Inquiry: Name the recorded GI50 for CC(C)C(NC(=O)C(CCCCN)NC(=O)C(Cc1c[nH]c2ccccc12)NC(=O)C(Cc1ccc(O)cc1)NC(=O)C(CS)NC(=O)C(N)Cc1ccc2ccccc2c1)C(=O)NC(CS)C(=O)NC(C(N)=O)C(C)O (stereo not drawn) (H-[2Nal]CYWKVCT-NH2; configuration not given here) .
Reply text: > 100 µM
